In this section, each of the molecules is paired with its reported hERG current change (%, negative = inhibition) at 10uM.
- TARGET_DESC: human ether-à-go-go-related gene (hERG) potassium channel (human, UniProt Q12809);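 further: peak tail current of the secondary pulse compared with the same well before compound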
- Sequence (Q12809 whole entry, looked up): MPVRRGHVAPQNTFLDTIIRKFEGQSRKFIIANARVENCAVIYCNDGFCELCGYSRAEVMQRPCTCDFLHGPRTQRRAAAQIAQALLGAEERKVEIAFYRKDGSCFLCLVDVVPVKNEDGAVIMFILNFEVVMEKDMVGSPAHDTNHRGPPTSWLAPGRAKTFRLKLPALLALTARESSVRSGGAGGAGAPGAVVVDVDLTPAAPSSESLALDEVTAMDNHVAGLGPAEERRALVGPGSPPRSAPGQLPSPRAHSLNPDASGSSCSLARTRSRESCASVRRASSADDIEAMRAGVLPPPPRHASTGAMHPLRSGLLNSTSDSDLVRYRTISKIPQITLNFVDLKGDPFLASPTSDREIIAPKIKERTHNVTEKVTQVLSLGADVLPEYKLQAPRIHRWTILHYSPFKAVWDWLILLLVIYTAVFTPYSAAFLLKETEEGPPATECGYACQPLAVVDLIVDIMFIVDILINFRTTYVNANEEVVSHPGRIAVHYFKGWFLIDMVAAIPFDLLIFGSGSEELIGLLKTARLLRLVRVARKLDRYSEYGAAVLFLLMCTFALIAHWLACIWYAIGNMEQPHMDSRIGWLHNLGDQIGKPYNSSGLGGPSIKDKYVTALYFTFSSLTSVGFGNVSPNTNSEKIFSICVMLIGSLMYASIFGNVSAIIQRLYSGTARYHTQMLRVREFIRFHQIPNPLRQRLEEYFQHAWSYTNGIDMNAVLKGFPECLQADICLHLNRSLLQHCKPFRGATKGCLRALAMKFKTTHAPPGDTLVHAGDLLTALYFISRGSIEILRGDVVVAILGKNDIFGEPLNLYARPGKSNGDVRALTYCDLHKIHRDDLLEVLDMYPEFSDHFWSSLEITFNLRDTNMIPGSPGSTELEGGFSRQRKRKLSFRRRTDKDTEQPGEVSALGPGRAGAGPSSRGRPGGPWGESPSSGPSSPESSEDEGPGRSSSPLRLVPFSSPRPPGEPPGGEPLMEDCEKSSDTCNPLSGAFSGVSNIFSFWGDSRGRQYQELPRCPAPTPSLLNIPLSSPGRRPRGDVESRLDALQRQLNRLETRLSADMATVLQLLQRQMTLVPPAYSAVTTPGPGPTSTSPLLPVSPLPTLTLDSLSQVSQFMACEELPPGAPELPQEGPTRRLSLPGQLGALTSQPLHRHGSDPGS
- MEASUREMENT_PROTOCOL: primary screen, population patch clamp on CHO cells stably expressing hERG; higher = less effect of the substance
Hit rate of the full screen: of about 310,000 compounds, about 14,000 (4.5%) showed an effect of 50% or more. Effects have a minus sign here. Only a selection was taken, and strong results are over-represented in it overall.
Numeric answer only, unit % assumed.

See these solved cases before continuing.
The molecule listed as N#C/C(=C/c1ccc(-c2cc([N+](=O)[O-])ccc2Cl)o1)C(N)=O has a reported hERG current change (%, negative = inhibition) at 10uM of 1.62

The molecule listed as CCOC(=O)c1c(-c2ccc(C)o2)csc1NC(=O)CSc1nnnn1-c1ccccc1 has a reported hERG current change (%, negative = inhibition) at 10uM of -3.66

The molecule CC(=O)Nc1ccc2c(c1)nc(CCN1CCOCC1)n2C showed hERG current change (%, negative = inhibition) at 10uM equal to 10.4

response.value for Cn1c(CN2CCOCC2)nc2cc(NC(=O)COc3ccccc3)ccc21 (field: hERG current change (%, negative = inhibition) at 10uM) = -0.505

Please fill in: hERG current change (%, negative = inhibition) at 10uM reported for COc1ccc(OCC(=O)Nc2ccc3c(c2)nc(CCN2CCOCC2)n3C)cc1 = -41

More entries:
Memo: Cc1noc(C)c1CSCC(=O)Nc1cc(Cl)ccc1N1CCCCC1 , reported hERG current change (%, negative = inhibition) at 10uM: 1.96

Notebook: O=C(NC1CCCc2ccccc21)c1cc(S(=O)(=O)N2CCOCC2)ccc1F (stereo not shown) , hERG current change (%, negative = inhibition) at 10uM read as 6.48

CCc1cc2c(cc3c(=O)n(CC(=O)N4CCN(C)CC4)ncn32)s1 yielded hERG current change (%, negative = inhibition) at 10uM of -14.3

Query Cn1c(CCN2CCOCC2)nc2cc(NC(=O)COc3ccccc3)ccc21 yields hERG current change (%, negative = inhibition) at 10uM of -15.1

Input Cc1ccnc2nc(C(=O)Nc3ccc4c(c3)OCO4)nn12 . Output hERG current change (%, negative = inhibition) at 10uM: -2.98

###

hERG current change (%, negative = inhibition) at 10uM overview
- TARGET_DESC: human ether-à-go-go-related gene (hERG) potassium channel (human);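 further: peak tail current of the secondary pulse compared with the same well before compound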
- MEASUREMENT_PROTOCOL: primary screen, population patch clamp on CHO cells stably expressing hERG; higher = less effect of the substance
About 14,000 (4.5%) of roughly 310,000 compounds showed an effect of 50% or more. Effects have a minus sign here. The sample holds strong results, similar compounds and a random draw of the others, so the mix is not that of the screen.
Write down the numeric answer in % and omit the unit.

Entry under test: CCOc1ccc(NC(=O)CN2CCc3ccccc3C2)cc1 . Its hERG current change (%, negative = inhibition) at 10uM was -6.01

hERG current change (%, negative = inhibition) at 10uM for CCNC(=O)/C(C#N)=C/c1c(N2CCCCCC2)nc2ccccn2c1=O is -9.13

compound Cc1ccc(N(CC(O)CON=C2c3ccccc3-c3ccccc32)S(C)(=O)=O)cc1 (centres unmarked) , hERG current change (%, negative = inhibition) at 10uM observed: 15.5

hERG current change (%, negative = inhibition) at 10uM reported for this compound CNC(=O)/C(C#N)=C/c1c(N2CCCCCC2)nc2ccccn2c1=O : 10.2

Reported hERG current change (%, negative = inhibition) at 10uM for NNC(=O)c1ccc(Cn2cc(Cl)cn2)o1 was 15.6

###

- TARGET_DESC: human ether-à-go-go-related gene (hERG) potassium channel (human);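 further: peak tail current of the secondary pulse compared with the same well before compound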
- MEASUREMENT_PROTOCOL: primary screen, population patch clamp on CHO cells stably expressing hERG; higher = less effect of the substance
In all, about 310,000 compounds went through this assay and about 14,000 (4.5%) showed an effect of 50% or more. The effect is printed as a negative number. The entries come from a sample that favours strong results as a whole.
Everything with hERG current change (%, negative = inhibition) at 10uM lower than -20% is NO; everything else, including exactly -20%, is YES.

Problem: Evaluate COC(=O)c1c(NC(=O)c2ccco2)sc2c1CCN(C(C)=O)C2 : hERG current change (%, negative = inhibition) at 10uM at minimum -20%?
Solution: YES

Problem: hey, is hERG current change (%, negative = inhibition) at 10uM for this one >= -20%? COC(=O)c1c(NC(C)=O)sc2c1CCN(Cc1ccccc1)C2.Cl
Solution: YES

Problem: Say whether COC(=O)c1c(NC(=O)c2ccco2)sc2c1CCN(C(C)C)C2.Cl shows hERG current change (%, negative = inhibition) at 10uM of -20% or more.
Solution: NO

Problem: Exam item: decide whether the reported hERG current change (%, negative = inhibition) at 10uM for COc1ccccc1NC(=O)CN1CCN(CC(=O)Nc2ccc(OC)c(OC)c2)CC1 is at least -20%.
Solution: NO

###

- TARGET_DESC: human ether-à-go-go-related gene (hERG) potassium channel (human, UniProt Q12809);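 further: peak tail current of the secondary pulse compared with the same well before compound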
- MEASUREMENT_PROTOCOL: primary screen, population patch clamp on CHO cells stably expressing hERG; higher = less effect of the substance
Among all 310,000 compounds or so, about 14,000 (4.5%) showed an effect of 50% or more. Effects have a minus sign here. Only a selection was taken, and strong results are over-represented in it overall.
# reported hERG current change (%, negative = inhibition) at 10uM; entries follow

Guide cases for hERG current change (%, negative = inhibition) at 10uM, answers given:
The measured hERG current change (%, negative = inhibition) at 10uM that Cn1c(=O)c2c(nc(CN3CCN(Cc4ccccc4)CC3)n2Cc2ccc(F)cc2)n(C)c1=O showed for human ether-à-go-go-related gene (hERG) potassium channel (human, UniProt Q12809) is -67.2%

Measured hERG current change (%, negative = inhibition) at 10uM (human ether-à-go-go-related gene (hERG) potassium channel (human, UniProt Q12809)), entry N#Cc1c(N)nc2c3c(sc(=N)c2c1N)NC(=O)CC3c1c(F)cccc1Cl (stereo not drawn) : -15.7%

Item COC(=O)c1[nH]c2ccc(Cl)cc2c1NC(=O)C1CC1 ; assay system human ether-à-go-go-related gene (hERG) potassium channel (human, UniProt Q12809); hERG current change (%, negative = inhibition) at 10uM reported as 17.1%

Value sought: hERG current change (%, negative = inhibition) at 10uM, system human ether-à-go-go-related gene (hERG) potassium channel (human, UniProt Q12809), item Cc1ccc(S(=O)(=O)Nc2cc(C(=O)NCCN(C)C)ccc2N2CCCC2)cc1 . Result: -6.83%

Summary: Cc1cnc([N+](=O)[O-])n1CCOC(=O)c1cccc(F)c1 , human ether-à-go-go-related gene (hERG) potassium channel (human, UniProt Q12809), hERG current change (%, negative = inhibition) at 10uM = -3.45%

// hERG current change (%, negative = inhibition) at 10uM (human ether-à-go-go-related gene (hERG) potassium channel (human, UniProt Q12809)) for CCc1ccccc1OCCCN1CCCC1.O=C(O)C(=O)O = -17.6%

Reported hERG current change (%, negative = inhibition) at 10uM (human ether-à-go-go-related gene (hERG) potassium channel (human, UniProt Q12809)) for entry COc1ccc(C(=O)C2CCCN(C(=O)CCc3ccccn3)C2)c(C)c1 (stereo not drawn) is -14.7%

Record CCCCN1C(N)=NC[C@@H]1C(C)O (stereo partly drawn) / human ether-à-go-go-related gene (hERG) potassium channel (human, UniProt Q12809), hERG current change (%, negative = inhibition) at 10uM recorded as 15.9%

Summary line: COC(=O)c1ccccc1OCCN1CCCCCC1.O=C(O)C(=O)O , human ether-à-go-go-related gene (hERG) potassium channel (human, UniProt Q12809), reported hERG current change (%, negative = inhibition) at 10uM = -46.2%

Note to self: hERG current change (%, negative = inhibition) at 10uM of CCC(=O)c1ccccc1OCCCN1C(=O)NC(C)(C)C1=O with human ether-à-go-go-related gene (hERG) potassium channel (human, UniProt Q12809) was 0.00578%

Next:
The reported hERG current change (%, negative = inhibition) at 10uM value, human ether-à-go-go-related gene (hERG) potassium channel (human, UniProt Q12809), for COc1ccc(C(=O)C2CCCN(Cc3cccn3-c3ccccn3)C2)c(OC)c1 (stereo not drawn) reads -74.6%

The recorded hERG current change (%, negative = inhibition) at 10uM with human ether-à-go-go-related gene (hERG) potassium channel (human, UniProt Q12809) for CCOc1ccc(NC(=O)CN(C)C(=O)c2c(-c3c(F)cccc3Cl)noc2C)cc1OCC was -3.83%

Record for Cc1c(N=Cc2c(O)n(Cc3ccc(F)cc3)c(=O)[nH]c2=O)c(=O)n(-c2ccccc2)n1C under target or system human ether-à-go-go-related gene (hERG) potassium channel (human, UniProt Q12809): hERG current change (%, negative = inhibition) at 10uM reported as -26%

hERG current change (%, negative = inhibition) at 10uM value, target or system human ether-à-go-go-related gene (hERG) potassium channel (human, UniProt Q12809), for COc1ccc(C)cc1-n1c(SCC(=O)Nc2cc(C)on2)nc2sc(C)c(C)c2c1=O : -2.19%

Assay human ether-à-go-go-related gene (hERG) potassium channel (human, UniProt Q12809), sample CC(C)CCNC(=O)/C=C/c1ccc(Br)cc1 , hERG current change (%, negative = inhibition) at 10uM read: 0.187%

Query CCC1CCCCN1CCCNC(=O)c1ccc(N2CCOCC2)c(NS(=O)(=O)c2ccc(OC)cc2)c1 (stereo not drawn) on human ether-à-go-go-related gene (hERG) potassium channel (human, UniProt Q12809); hERG current change (%, negative = inhibition) at 10uM returned: -57.6%

Summary: COc1ccc(N2CCN(Cc3nc4c(c(=O)n(C)c(=O)n4C)n3CCc3ccccc3)CC2)cc1 , human ether-à-go-go-related gene (hERG) potassium channel (human, UniProt Q12809), hERG current change (%, negative = inhibition) at 10uM = 13.5%

Summary: O=C(O)C(=O)O.OCc1ccccc1OCCCN1CCC(Cc2ccccc2)CC1 , human ether-à-go-go-related gene (hERG) potassium channel (human, UniProt Q12809), hERG current change (%, negative = inhibition) at 10uM = -75%

Entry Cc1ccc(S(=O)(=O)Nc2cc(C(=O)N3CCOCC3)ccc2N2CCCCC2)cc1 , tested on human ether-à-go-go-related gene (hERG) potassium channel (human, UniProt Q12809), has a reported hERG current change (%, negative = inhibition) at 10uM of -20.5%

Considering N#Cc1c(Cl)nsc1NC(=O)c1ccccc1 , its hERG current change (%, negative = inhibition) at 10uM with human ether-à-go-go-related gene (hERG) potassium channel (human, UniProt Q12809) was recorded as 8.24%
